Could you please report measured MMAE Tumor for the items listed next?
Protocol summary: H524 tumor biodistribution model: tumor and plasma levels of SMDC and MMAE by LC/MS-MS
Assay type: in vivo, female Athymic nude mice
Conditions used: MMAE level 24 h after 500 nmol/kg IV of the conjugate, H524 tumor bearing nude mice
Write the number in nM without appending the unit.

Name the recorded MMAE Tumor for CC[C@H](C)[C@@H]([C@@H](CC(=O)N1CCC[C@H]1[C@H](OC)[C@@H](C)C(=O)N[C@H](C)[C@@H](O)c1ccccc1)OC)N(C)C(=O)[C@@H](NC(=O)[C@H](C(C)C)N(C)C(=O)OCc1ccc(NC(=O)[C@H](CCCNC(N)=O)NC(=O)[C@@H](NC(=O)[C@@H](CS(=O)(=O)O)NC(=O)CCOCCC(=O)NCCNc2ncc(-c3cc(C)cc(F)c3)c(N3CCC(N)CC3)c2-c2nc3ccc(Cl)cc3[nH]2)C(C)C)cc1C(=O)NCCN)C(C)C .
242

Name the recorded MMAE Tumor for CC[C@H](C)[C@@H]([C@@H](CC(=O)N1CCC[C@H]1[C@H](OC)[C@@H](C)C(=O)N[C@H](C)[C@@H](O)c1ccccc1)OC)N(C)C(=O)[C@@H](NC(=O)[C@H](C(C)C)N(C)C(=O)OCc1ccc(NC(=O)[C@H](C)NC(=O)[C@@H](NC(=O)CCOCCC(=O)NCCNc2ncc(-c3cc(C)cc(F)c3)c(N3CCC(N)CC3)c2-c2nc3ccc(Cl)cc3[nH]2)C(C)C)c(O[C@@H]2O[C@H](C(=O)O)[C@@H](O)[C@H](O)[C@H]2O)c1)C(C)C .
299

Name the recorded MMAE Tumor for CC[C@H](C)[C@@H]([C@@H](CC(=O)N1CCC[C@H]1[C@H](OC)[C@@H](C)C(=O)N[C@H](C)[C@@H](O)c1ccccc1)OC)N(C)C(=O)[C@@H](NC(=O)[C@H](C(C)C)N(C)C(=O)OCc1ccc(NC(=O)[C@H](CCCNC(N)=O)NC(=O)[C@@H](NC(=O)CCOCCC(=O)NCCNc2ncc(-c3cc(C)cc(F)c3)c(N3CCC(N)CC3)c2-c2nc3ccc(Cl)cc3[nH]2)C(C)C)c(O[C@@H]2O[C@H](C(=O)O)[C@@H](O)[C@H](O)[C@H]2O)c1)C(C)C .
320

Name the recorded MMAE Tumor for CC[C@H](C)[C@@H]([C@@H](CC(=O)N1CCC[C@H]1[C@H](OC)[C@@H](C)C(=O)N[C@H](C)[C@@H](O)c1ccccc1)OC)N(C)C(=O)[C@@H](NC(=O)[C@H](C(C)C)N(C)C(=O)OCc1ccc(NC(=O)[C@H](CCCNC(N)=O)NC(=O)[C@@H](NC(=O)[C@H](CCC(=O)O)NC(=O)CCOCCC(=O)NCCNc2ncc(-c3cc(C)cc(F)c3)c(N3CCC(N)CC3)c2-c2nc3ccc(Cl)cc3[nH]2)C(C)C)cc1C(=O)NCCN)C(C)C .
83.5
